assay.system: Histone deacetylase (HDAC1 and HDAC2) (Homo sapiens, UniProt Q13547+Q92769)
assay.remarks: Inhibition of HDAC1/2 in human HeLa cell nuclear extract using Boc-Lys (acetyl)-AMC as substrate preincubated for 30 mins before substrate addition measured after 20 mins by UV-vis spectrophotometer analysis
Assay type: cell-based
readout.name: IC50

Sample answers from the record:
In [3]: df
Out[3]:
                                item_smiles  readout_name  recorded_result
0  O=C(CNC(=O)CN1C(=O)C2(OCCO2)c2cc(Br)ccc21)NO          IC50          > 50 µM
1  O=C(CN1C(=O)C2(OCCO2)c2cc([N+](=O)[O-])ccc21)Nc1ccc(C(=O)NO)cc1          IC50          > 50 µM

## Input Item: O=C(CN1C(=O)C2(OCCCO2)c2cc(Br)ccc21)Nc1ccc(C(=O)O)cc1 Test system: Histone deacetylase (HDAC1 and HDAC2) (Homo sapiens, UniProt Q13547+Q92769) Read-out: IC50 Value: ?
## Output > 50 µM

Attribution: ChEMBL document CHEMBL3593221
